Source listed as FireProtDB (doi:10.1021/bi0525223).

B1: Protein P-30, P22069 (parent)
chain: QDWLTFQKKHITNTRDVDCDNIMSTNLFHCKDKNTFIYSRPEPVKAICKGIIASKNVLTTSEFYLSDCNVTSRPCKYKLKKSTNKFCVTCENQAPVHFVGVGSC

Variants of: B1
Details: Lithobates pipiens; pH 5.5; 20 °C; GdnHCl; Fluorescence; sodium acetate 100 mM; reversible: Yes; structure 1ONC; whole UniProt chain shown
READOUT: denaturant midpoint (higher = more stable) (M)

variant_key=F28T value_measured=2.8
variant_key=F28A value_measured=2.9
variant_key="C87A C104A" value_measured=2.1
variant_key=F36Y value_measured=3
